The reported measurements were obtained from patent US9187487B2.

molecular target: recombinant JAK3 (catalytic domain, aa 781-1124) (Homo sapiens (Human)); assay: JAK3 Caliper Peptide Phosphorylation Assay; settings: fluorescently labeled Srctide substrate 1 uM; ATP at 1×Km (2 uM); 2 hours at 25° C.
Sequence (P52333 781-1124): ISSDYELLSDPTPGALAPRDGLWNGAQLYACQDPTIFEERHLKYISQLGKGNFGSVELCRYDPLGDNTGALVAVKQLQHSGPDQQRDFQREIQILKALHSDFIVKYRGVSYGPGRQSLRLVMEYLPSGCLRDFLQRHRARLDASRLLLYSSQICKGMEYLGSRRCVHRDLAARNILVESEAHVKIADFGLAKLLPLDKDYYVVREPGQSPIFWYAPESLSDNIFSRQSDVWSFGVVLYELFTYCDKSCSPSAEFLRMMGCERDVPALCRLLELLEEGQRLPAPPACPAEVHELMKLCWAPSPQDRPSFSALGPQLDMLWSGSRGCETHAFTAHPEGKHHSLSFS
Experimental readout: IC50

In: Input Cc1c(C=C(C#N)C(=O)N(C)C)cccc1Nc1ncnc2[nH]ccc12 [compound 16] , output reported IC50.
Out: 1270 nM

In: Could you please provide reported IC50 for CN(C)C(=O)C(C#N)=Cc1cccc(Oc2cnc3[nH]ccc3n2)c1 [compound 31] ? Thanks!
Out: > 1000 nM

In: Supply IC50 value. Item: CC(C)(C)C(=O)c1c[nH]c2ncc(Nc3ccc(C=C(C#N)C(N)=O)cc3)nc12 [compound 60]
Out: 0.4 nM

In: Answer with reported IC50 of CN(C)C(=O)C(C#N)=Cc1cccc(Nc2ncnc3[nH]ccc23)c1 [compound 3]
Out: 150 nM

In: Return IC50 for the following compound: CN(C)C(=O)C(C#N)=Cc1ccc(Nc2cnc3[nH]cc(C(=O)C(C)(C)C)c3n2)s1 [compound 73]
Out: 210 nM

In: Please report the measured IC50 for CN1CCN(C(=O)C(C#N)=Cc2ccc(Nc3cnc4[nH]cc(C(=O)C(C)(C)C)c4n3)cc2)CC1 [compound 64]
Out: 0.2 nM

In: Check the records and state IC50 for CN(C)C(=O)C(C#N)=Cc1cccc(-c2cnc3[nH]ccc3n2)c1 [compound 27]
Out: > 1000 nM

In: State, in one line, measured IC50 of CCOC(=O)C(C#N)=Cc1ccc(Nc2cnc3[nH]cc(C(=O)C(C)(C)C)c3n2)cc1 [compound 79]
Out: 100 nM

In: Provide one value: measured IC50 of CC(C)NC(=O)c1c[nH]c2ncc(Nc3ccc(C=C(C#N)C(=O)N(C)C)cc3)nc12 [compound 50]
Out: 0.2 nM

In: State its IC50 for this compound: CN(C)C(=O)C(C#N)=Cc1ccc(Oc2cnc3[nH]ccc3n2)cc1 [compound 32]
Out: 320 nM

In: Report IC50, nothing else, for this compound: CC(C)NC(=O)c1c[nH]c2ncc(-c3cccc(C=C(C#N)C(=O)N(C)C)c3)nc12 [compound 47]
Out: 13 nM

In: Let me know recorded IC50 for CN(C)C(=O)C(C#N)=Cc1cccc(Oc2cnc3[nH]cc(C(=O)C(C)(C)C)c3n2)c1 [compound 100] , thanks.
Out: > 5000 nM

In: Give IC50 for CC(C)NC(=O)c1c[nH]c2ncc(Nc3ccc(C=C(C#N)C(=O)N4CCOCC4)cc3)nc12 [compound 80]
Out: 0.7 nM

In: Please supply the value of reported IC50 for the item CN(C(=O)C(C#N)=Cc1ccc(Nc2cnc3[nH]cc(C(=O)C(C)(C)C)c3n2)cc1)c1ccccc1 [compound 85]
Out: 5.5 nM

In: Let me know recorded IC50 for CC(C)(C)C(=O)c1c[nH]c2ncc(Nc3ccc(C=C(C#N)S(C)(=O)=O)cc3)nc12 [compound 81] , thanks.
Out: 0.6 nM

In: Please report the measured IC50 for CN(C)C(=O)C(C#N)=Cc1cccc(-c2cnc3[nH]cc(C(=O)C(C)(C)C)c3n2)c1 [compound 97]
Out: 104 nM
